Data provenance: patent US6878738B1

# targetDesc: COX2 (from sheep placenta) (Ovis aries, UniProt P79208)
# Construct: COX2 (from sheep placenta) is preincubated with test substance at 4° C. for 10 min
# Sequence (P79208 17-603): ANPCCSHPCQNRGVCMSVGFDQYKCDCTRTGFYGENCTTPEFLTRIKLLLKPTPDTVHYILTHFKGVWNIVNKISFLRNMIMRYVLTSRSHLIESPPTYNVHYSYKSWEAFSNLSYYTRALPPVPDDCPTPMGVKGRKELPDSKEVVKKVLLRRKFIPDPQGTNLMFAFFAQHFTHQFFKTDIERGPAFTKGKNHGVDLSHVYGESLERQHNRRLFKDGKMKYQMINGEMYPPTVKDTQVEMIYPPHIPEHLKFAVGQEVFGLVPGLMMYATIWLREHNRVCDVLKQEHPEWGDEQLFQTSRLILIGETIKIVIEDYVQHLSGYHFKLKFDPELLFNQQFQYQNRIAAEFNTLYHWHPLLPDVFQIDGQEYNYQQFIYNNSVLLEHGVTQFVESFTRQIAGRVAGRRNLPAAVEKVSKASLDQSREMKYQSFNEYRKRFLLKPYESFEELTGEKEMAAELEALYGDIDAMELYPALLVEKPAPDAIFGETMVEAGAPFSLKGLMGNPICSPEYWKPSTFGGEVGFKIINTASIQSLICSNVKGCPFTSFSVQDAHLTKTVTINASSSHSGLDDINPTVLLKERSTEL
# assaySummary: Inhibition of cyclooxygenase-2: COX2 stimulated with arachidonic acid, PGE2 by ELISA
# setupConditions: arachidonic acid 5 μM, read-out: IC50 COX-2
Answer each item with its documented IC50.
// return the numeric value with its unit appended

Known IC50 results, listed for orientation:
[
  {
    "compound": "CC1(C)Cc2c(-c3ccccc3)c(-c3ccc(Cl)cc3)c(CC(=O)O)n2C1 [ML 3000, reference compound]",
    "IC50": "4.7 µM"
  },
  {
    "compound": "COC1c2c(-c3ccccc3)c(-c3ccc(Cl)cc3)c(C)n2CC1(C)C (stereo not drawn)",
    "IC50": "7.5 µM"
  }
]

Attention now shifts to the item below.
Request: Give recorded IC50. CC1(C)Cn2c(CC(=O)O)c(-c3ccc(Cl)cc3)c(-c3ccccc3)c2C1=O
Response: 2.1 µM
